Test: growth inhibition of DIPG cells – cell-based, MIPE5.0 library, qHTS (AID 1347068);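 for IC50: cells exposed to compound for 48 hours before viability readout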
Conditions: SU-DIPG-XXV viability
Inconclusive results are not listed. Activity calls are given as the source filed them. No cut-off is given here; in the data, nearly all actives have IC50 up to about 30 µM.
Possible outcomes: True = active, False = inactive

* CCN(C(=O)c1ccccc1OC)c1cc2c(cc1N1CCNC[C@H]1C)n(C)c(=O)n2C | False
* C=CC(=O)N1CCC(CNc2ncnc(N)c2-c2ccc(Oc3ccccc3)cc2)CC1 | False
* Cc1cc2c(cc1C1(c3ccc(C(=O)O)cn3)CC1)C(C)(C)CCC2(C)C | False
* CN(C)c1ccc(Nc2nc(N)n(C(=O)c3c(F)cccc3F)n2)cc1 | True
* COc1ccc([C@@H](O)[C@@H](C)Oc2ccc([C@H]3O[C@H](c4ccc(O[C@H](C)[C@H](O)c5ccc(OC)c(OC)c5)c(OC)c4)[C@H](C)[C@H]3C)cc2OC)cc1OC | True
* c1ccc2c(-c3cnn4cc(-c5ccc(N6CCNCC6)cc5)cnc34)ccnc2c1 | True
* CNC(=O)CCc1cc(-c2ccc(-c3ccc(C(F)(F)F)cc3)cc2)n(-c2ccc(N3CCNCC3)cc2)n1 | True
* Cc1ncc(NC(=O)c2ccc(CN3CCN(C)CC3)c(C(F)(F)F)c2)cc1Nc1nccc(-c2cccnc2)n1 | False
* CC(C)(O)[C@H]1CC[C@@](C)([C@H]2[C@@H](O)C[C@@]3(C)[C@@H]4C[C@H](O[C@@H]5O[C@H](CO)[C@@H](O)[C@H](O)[C@H]5O)[C@H]5C(C)(C)[C@@H](O[C@@H]6OC[C@@H](O)[C@H](O)[C@H]6O)CC[C@@]56C[C@@]46CC[C@]23C)O1 | False
* COc1ccccc1C(=O)Nc1cc2c(cc1N1CCCCC1)n(C)c(=O)n2C | False
* CCc1cc(Nc2nccc(-c3c(-c4ccc(OC)c(C(=O)Nc5c(F)cccc5F)c4)nc4ccccn34)n2)c(OC)cc1N1CCC(N2CCN(S(C)(=O)=O)CC2)CC1 | False
* CS(=O)(=O)N(Cc1ccco1)CC(O)Cn1c2ccccc2c2ccccc21 (stereo not given) | False
* C=CC(=O)N1CCC(C2CCNc3c(C(N)=O)c(-c4ccc(Oc5ccccc5)cc4)nn32)CC1 (stereo not given) | False
* CCCn1c(=O)c2[nH]c(C34CC5CC3C[C@@H](C5)C4)nc2n(CCC)c1=O | False
* COc1ccc(-c2oc3c(CC=C(C)C)c(OC4O[C@H](CO)[C@@H](O)[C@H](O)[C@H]4O)cc(O)c3c(=O)c2OC2O[C@@H](C)[C@H](O)[C@@H](O)[C@H]2O)cc1 (stereo not given in full) | False

====

Each entry below carries its recorded viability.
Test: drug combination growth inhibition, ovarian cancer – cell-based, oncology-focused library, rucaparib conditional, profiling panel (AID 1508598)
Conditions: patient-derived ovarian cancer cells, CellTiter-Glo viability, 144 h; at 5 µM; OCI-C5x cells; with rucaparib 10 µM; stronger effect = lower value; 100% = cells with rucaparib alone
REPORTED_PROPERTY: viability (%)

* CNC(=O)c1cc(COc2nnc(Nc3ccc(Cl)cc3)c3ccoc23)ccn1 | 114
* Cc1cc(Nc2cc(N3CCN(C)CC3)nc(/C=C/c3ccccc3)n2)n[nH]1 | 95.4
* Cc1cc(CS(=O)(=O)c2ccccc2)cc(OCc2ccc(CN3CCC[C@@H]3CO)cc2)c1 | 127
* Nc1cc(C(F)(F)F)c(-c2cc(N3CCOCC3)nc(N3CCOCC3)n2)cn1 | 31.4
* O=C(NCCCNc1nc(Nc2cccc(NC(=O)N3CCCC3)c2)ncc1I)c1cccs1 | 76.6
* CNC(=O)c1cc(Oc2ccc(NC(=O)Nc3cc(C(C)(C)C)nn3-c3ccc4ncccc4c3)c(F)c2)ccn1 | 9.96
* CCC[C@H](Nc1nc(-c2ccc(NC(=O)NCC)c(OC)c2)ncc1C)c1cccnc1 | 39.3
* Cn1cc(-c2ccc3nnc(C(F)(F)c4ccc5ncccc5c4)n3n2)cn1 | 130
* Cc1cc2c(F)c(Oc3ncnn4cc(OC[C@@H](C)O)c(C)c34)ccc2[nH]1 | 122
* OCCn1cc(-c2cnc3nnn(Cc4ccc5ncccc5c4)c3n2)cn1 | 148
* C=C(c1ccc(C(=O)O)cc1)c1cc2c(cc1C)C(C)(C)CCC2(C)C | 101
* CN(C)Cc1c(C(=O)NCCOc2ccc(C(=O)NO)cc2)oc2ccccc12 | 8.92
* CC[C@@H]1C(=O)N(C)c2cnc(Nc3ccc(C(=O)NC4CCN(C)CC4)cc3OC)nc2N1C1CCCC1 | 18
* COC(=O)Nc1ccc(-c2nc(N3CCOCC3)c3cnn(C4CCN(C(=O)OC)CC4)c3n2)cc1 | 126
* CC(C)Oc1ccc(C(=O)N[C@H](CNC(=O)CN(C)C)Cc2ccc(-c3cn4cccc([C@H](C)O)c4n3)cc2)cc1Cl | 79.5
* CN1CCN(c2ccc(OC(F)(F)F)c(Nc3ncc4c(n3)-c3c(c(C(N)=O)nn3CCO)CC4)c2)CC1 | 40.7
* CNC(=O)c1ccc(C)c(-n2c(C)cc(OCc3ccc(F)cc3F)c(Br)c2=O)c1 | 123
* CNC(=O)c1cc(Oc2ccc(NC(=O)Nc3ccc(Cl)c(C(F)(F)F)c3)c(F)c2)ccn1 | 125
* O=C(O)c1ccc2c(c1)nc(Nc1cccc(Cl)c1)c1ccncc12 | 43.6

====

Test: viability loss with induced miR-34 in A549 – imaging, A549 dox-inducible miR-34, nuclei and caspase counts, primary screen (AID 1347080)
Conditions: A549 miR-34 inducible, Hoechst nuclei count, 48 h; measured here: total cells with miR-34 induction; stronger effect = lower value
REPORTED_PROPERTY: cell count

- NC(=O)CCC/C=C\C[C@@H]1[C@@H](/C=C/[C@@H](O)CCc2ccccc2)[C@H](O)C[C@@H]1O: 6210
- CNCc1ccc(-c2[nH]c3cc(F)cc4c3c2CCNC4=O)cc1: 6530
- CCCCCC#CCC#CCC#CCCCCCCC(=O)O: 5730
- CCCCN=C(N)NO: 6280
- C[C@H](NC[C@H](O)CP(=O)(O)Cc1ccccc1)c1ccc(Cl)c(Cl)c1: 8740
- O=C(O)CCC/C=C\C[C@H]1[C@@H](O)CC(=O)[C@@H]1/C=C/[C@@H](O)CCc1ccccc1: 5860
- CN(C)Cc1c(C(=O)NCCOc2ccc(C(=O)NO)cc2)oc2ccccc12: 1280
- O=C1OC(O)C(c2cc3ccccc3s2)=C1Br (stereo not given): 5180
- Cc1cnc(-c2cnc(NCCNc3ccc(C#N)cn3)nc2-c2ccc(Cl)cc2Cl)[nH]1: 2900
- O=C(O)CCC/C=C\C[C@@H]1[C@@H](CC[C@@H](O)CCc2ccccc2)[C@H](O)C[C@@H]1O: 5880

====

Assay: growth inhibition, single agent or in combination, cell-based, chromothripsis tumors, cisplatin or BGB combos (AID 1671449);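 note: cells exposed for 96 hours; 0% = vehicle DMSO and 100% = killing by high DMSO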
Conditions: LFS_MB_P medulloblastoma cells, measured here: combination with cisplatin, at 0.5 µM, stronger effect = higher value
REPORTED_PROPERTY: inhibition (%)

• O=C(COc1cccc2c(=O)[nH]ccc12)c1ccccc1 = -36.1
• COc1ccc(C(=O)C2CCN(CC(=O)N(Cc3nc4c(c(=O)[nH]3)COCC4)CC3CC3)CC2)cc1 = -22.8
• c1cc(Nc2cc(C3CC3)[nH]n2)nc(Nc2ccc3nc[nH]c3c2)n1 = -45.7
• O=c1cc(N2CCOCC2)oc2c(-c3cccc4c3sc3ccccc34)cccc12 = -30
• O=c1[nH]c([C@@H]2CCCN2)nc2c1oc1ccc(Cl)cc12 = 64.5
• CC(=O)Nc1nc(C)c(-c2ccc(Cl)c(S(=O)(=O)NCCO)c2)s1 = -52.3
• NCCOc1cc(C(=O)Nc2cc(OCCN)c3ccccc3n2)nc(C(=O)Nc2cc(OCCN)c3ccccc3n2)c1 = 12.8
• Nc1ccccc1NC(=O)c1ccc(CNc2nccc(-c3cccnc3)n2)cc1 = 45.4
• Nc1ccc(-c2ccc3ncc4ccc(=O)n(-c5cccc(C(F)(F)F)c5)c4c3c2)cn1 = 3.19
• O=C(O)[C@H](Cc1c[nH]c2ccccc12)N1C(=O)c2ccccc2C1=O = -21.3

====

Assay: MELAS cybrid and Rieske KO viability enhancers – cell-based, MELAS cybrids, Rieske KO mouse fibroblasts, CellTiter-Glo, primary screen (AID 1508586);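 note: z relative to plate mean and SD of compound and empty wells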
Conditions: Rieske KO mouse fibroblast survival, low glucose, CellTiter-Glo 72 h
Each entry below carries its recorded z-score.
REPORTED_PROPERTY: z-score

• CNCC(O)C(O)C(O)C(O)CO (stereo not given) = 0.0963
• COc1cc(Nc2ncc3c(n2)-c2ccc(Cl)cc2C(c2c(F)cccc2OC)=NC3)ccc1C(=O)O = 0.925
• Cc1ccc(O)c(C(CCN(C(C)C)C(C)C)c2ccccc2)c1 (stereo not given) = -0.0904
• CN1CCN(c2cccc(Nc3nc4c(-c5ccc(S(C)(=O)=O)cc5)cccn4n3)c2)CC1 = 0.00545
• COc1cc2ncnc(Nc3ccc(O)c(Br)c3)c2cc1OC = -0.0359
• NC(=O)c1cccc(-c2cc(Nc3ccc(OC(F)(F)F)cc3)ncn2)c1 = -0.362
• CC(=O)c1c(C)c2cnc(Nc3ccc(N4CCNCC4)cn3)nc2n(C2CCCC2)c1=O = -0.48
• C=CC(=O)Nc1cccc(Nc2nc(Nc3ccc(OCCOC)cc3)ncc2F)c1 = -0.365
• O=C(Nc1cccc(C(F)(F)F)c1)Nc1cc(S(=O)(=O)NC2CC2)ccc1-c1ccsc1 = -0.851
• CC(C)n1c(/C=C/[C@H](O)C[C@H](O)CC(=O)O)c(-c2ccc(F)cc2)c2ccccc21 = 0.0762
• CC(C)n1cnc2c(NCCc3ccc(O)cc3)nc(-c3csc4ccccc34)nc21 = 0.499
• Nc1nc(N)c(N=O)c(OCC2CCCCC2)n1 = -2.45
• Nc1nccc(Oc2ccc(NC(=O)c3c[nH]cc(-c4ccc(F)cc4)c3=O)cc2F)c1Cl = 0.168
• c1cn2cc(-c3ccc4cn[nH]c4c3)nc(Nc3ccc(N4CCOCC4)cc3)c2n1 = 0.233
• CC1(O)CC(c2nc(-c3ccc4ccc(-c5ccccc5)nc4c3)c3c(N)nccn23)C1 (stereo not given) = 0.283
• O=C(Nc1cccnc1)N1CCC(Cc2cccc(Oc3ccc(C(F)(F)F)cn3)c2)CC1 = -0.332
• COc1cc2ncnc(Nc3cccc(Cl)c3)c2cc1OC = 0.126
• COc1cc2ncnc(Nc3ccc(Cl)cc3F)c2cc1OC = -0.0991
• CC(C)(C)c1nc(-c2cccc(NS(=O)(=O)c3c(F)cccc3F)c2F)c(-c2ccnc(N)n2)s1 = 0.678
• Cc1cc(Nc2ncnc3ccc(-c4ccc(CNCCS(C)(=O)=O)o4)cc23)ccc1Oc1ccn2ncnc2c1 = -0.462
• C=CC(=O)Nc1ccc2ncnc(Nc3ccc(OCc4cccc(F)c4)c(Cl)c3)c2c1 = 0.764
• CC(C)OC(=O)C1=CN(C(=O)c2ccc(F)c(F)c2)CC(C)(C)c2c1[nH]c1ccccc21 = 0.0698
• CC1(C)CCC2=C(O1)c1ccccc1C(=O)C2=O = -4.3
• CN1CCN(c2ccc(OC(F)(F)F)c(Nc3ncc4c(n3)-c3c(c(C(N)=O)nn3CCO)CC4)c2)CC1 = -0.694
• CN(C)c1cc(NC(=O)CNC(C)(C)C)c(O)c2c1C[C@H]1C[C@H]3[C@H](N(C)C)C(=O)C(C(N)=O)=C(O)[C@@]3(O)C(=O)C1=C2O = 0.0397
• Cc1ccc2c(=O)c3cccc(CC(=O)O)c3oc2c1C = 0.338
• C[N+]1(C)[C@@H]2CC(OC(=O)C(O)(c3cccs3)c3cccs3)C[C@H]1[C@@H]1O[C@@H]12 (stereo not given in full) = -0.119
• Cc1nc2c(-c3cnc(N)nc3)nc(N3CCOCC3)nc2n1C(C)C = -0.403
• CC(C)n1nc(-c2ccc3oc(N)nc3c2)c2c(N)ncnc21 = -2.58
• COc1ccc(Cn2ccc3ccc(C(=O)NO)cc32)cc1 = 0.636
• COC(=O)c1ccc2c(C(=Nc3ccc(N(C)C(=O)CN4CCN(C)CC4)cc3)c3ccccc3)c(O)[nH]c2c1 = -1.1
• Cn1cc(-c2ccc3nnc(Sc4ccc5ncccc5c4)n3n2)cn1 = 0.75
• COc1ccc(CCC(=O)Nc2nc3ccc(Cl)cc3s2)cc1OC = -0.214
• CCOC(=O)CCNc1cc(N2CCc3ccccc3CC2)nc(-c2ccccn2)n1 = -0.225
• CC(C)(C)c1cc(C(C)(C)C)c(NC(=O)c2c[nH]c3ccccc3c2=O)cc1O = 0.598
• O=C(Nc1cccc(Cl)c1)Nc1ncc(CCNc2ncnc3ccsc23)s1 = -1.82
• NC1(Cc2ccc(Cl)cc2)CCN(c2ncnc3[nH]ccc23)CC1 = -1.1
• Clc1ccc(C2(c3ccc(-c4cn[nH]c4)cc3)CCNCC2)cc1 = -3.02
• COc1cc(Nc2ncc(F)c(Nc3ccc4c(n3)N(COP(=O)(O)O)C(=O)C(C)(C)O4)n2)cc(OC)c1OC = -0.181
• CCCS(=O)(=O)Nc1ccc(F)c(C(=O)c2c[nH]c3ncc(Cl)cc23)c1F = 0.575

These data points were gathered from PubChem BioAssay.
